Molecular target: CFTR ΔF508 (Homo sapiens, UniProt P13569, DEL508-508)
Construct: bronchial epithelial cells isolated from CF patients homozygous for the CFTR ΔF508 mutation; McGill University; Asterand; University of North Carolina hAEC-CF; host or cells: primary human bronchial epithelial cells from CF patients homozygous for ΔF508
Sequence (P13569 with tags, fused parts or gaps DEL508-508): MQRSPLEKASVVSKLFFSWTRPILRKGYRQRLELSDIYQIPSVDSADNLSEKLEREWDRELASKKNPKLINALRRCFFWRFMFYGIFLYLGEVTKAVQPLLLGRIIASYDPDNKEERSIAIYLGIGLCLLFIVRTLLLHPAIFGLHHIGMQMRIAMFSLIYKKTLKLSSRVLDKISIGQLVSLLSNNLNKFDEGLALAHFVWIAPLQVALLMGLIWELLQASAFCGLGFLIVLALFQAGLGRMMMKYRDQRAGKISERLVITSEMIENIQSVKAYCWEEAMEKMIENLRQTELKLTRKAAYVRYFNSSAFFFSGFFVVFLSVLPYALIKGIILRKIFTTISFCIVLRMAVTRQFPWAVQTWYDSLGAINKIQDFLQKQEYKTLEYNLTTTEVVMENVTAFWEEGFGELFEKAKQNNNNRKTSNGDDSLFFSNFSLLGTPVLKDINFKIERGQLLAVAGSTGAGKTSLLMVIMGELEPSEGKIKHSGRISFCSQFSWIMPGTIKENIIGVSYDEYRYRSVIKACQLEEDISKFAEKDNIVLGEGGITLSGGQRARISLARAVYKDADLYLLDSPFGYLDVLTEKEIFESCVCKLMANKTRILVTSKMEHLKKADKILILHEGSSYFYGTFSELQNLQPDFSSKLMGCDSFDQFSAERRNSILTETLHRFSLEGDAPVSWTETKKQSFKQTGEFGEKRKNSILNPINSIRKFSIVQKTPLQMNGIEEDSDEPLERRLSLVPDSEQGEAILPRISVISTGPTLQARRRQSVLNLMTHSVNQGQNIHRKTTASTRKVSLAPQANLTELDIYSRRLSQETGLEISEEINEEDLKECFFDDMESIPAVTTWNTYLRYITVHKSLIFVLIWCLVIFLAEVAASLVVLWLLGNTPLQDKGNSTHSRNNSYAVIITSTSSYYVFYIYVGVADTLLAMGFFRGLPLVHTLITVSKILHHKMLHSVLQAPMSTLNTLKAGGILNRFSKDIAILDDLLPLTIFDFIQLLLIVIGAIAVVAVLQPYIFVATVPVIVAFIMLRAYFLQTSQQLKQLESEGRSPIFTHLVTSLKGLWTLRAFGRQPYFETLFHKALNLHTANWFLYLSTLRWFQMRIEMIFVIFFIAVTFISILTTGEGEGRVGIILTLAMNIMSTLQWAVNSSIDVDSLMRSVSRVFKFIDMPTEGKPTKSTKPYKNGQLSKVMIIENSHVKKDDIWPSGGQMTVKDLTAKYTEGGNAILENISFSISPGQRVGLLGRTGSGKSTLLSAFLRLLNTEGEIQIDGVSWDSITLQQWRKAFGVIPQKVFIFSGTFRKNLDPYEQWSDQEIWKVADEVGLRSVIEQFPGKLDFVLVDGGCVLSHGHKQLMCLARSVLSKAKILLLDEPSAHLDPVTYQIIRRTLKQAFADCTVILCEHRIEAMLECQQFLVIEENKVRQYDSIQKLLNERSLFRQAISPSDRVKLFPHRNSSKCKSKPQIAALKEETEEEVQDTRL
Assay: Chronic TECC assay on primary bronchial epithelial cells (corrector, co-corrector and potentiator)
Format: cell-based
Settings: chronic TECC; 1 μM; AUC = full area under the curve upon forskolin stimulation; with co-corrector and potentiator, 24 hours
Observable: % Activity at 1 μM (AUC**) (%)
Reply numerically in %, unit not repeated.

O=C(O)c1cc(N2CCN(c3ccncc3)CC2)c2c(C3CCC3)nn(C3CCCCC3)c2n1 has a reported % Activity at 1 μM (AUC**) of 186.6667

compound CC(C)OC(=O)N1CC[C@@H]2CN(c3cc(C(=O)O)nc4c3c(C3CCC3)nn4-c3ccccc3)CC[C@@H]21 (racemic) , % Activity at 1 μM (AUC**) observed: 471

Form field % Activity at 1 μM (AUC**), entry CCOC(=O)N1CCN(c2cc(C(=O)O)nc3c2c(C2CCC2)nn3-c2ccccc2)CC1 : 557

The measured % Activity at 1 μM (AUC**) associated with O=C(O)c1cc(N2CCC(CCN3CCOCC3)CC2)c2c(C3CCC3)nn(-c3ccccc3)c2n1 reads 290

So for O=C(O)c1cc(N2CCC3(CC2)CCN(C2CCC2)CC3)c2c(C3CCC3)nn(-c3ccc(F)cc3)c2n1 , the logged % Activity at 1 μM (AUC**) turned out to be 300

Record summary for O=C(O)c1cc(N2CCC(CCN3CCOCC3)CC2)c2c(C3CCC3)nn(-c3ccc(F)cc3)c2n1 : reported % Activity at 1 μM (AUC**) = 191.4768

get_value(item= O=C(O)c1cc(N2CCC(CCN3CCCC3)CC2)c2c(C3CCC3)nn(-c3ccccc3)c2n1 , readout=% Activity at 1 μM (AUC**)) returns 190

Recorded % Activity at 1 μM (AUC**) (compound CC(C)N1CCC2(CCN(c3cc(C(=O)O)nc4c3c(C3CCC3)nn4-c3ccc(F)cc3)CC2)CC1 ): 366.6667

O=C(O)c1cc(N2CCC3(CC2)CCN(C2CC2)CC3)c2c(C3CCC3)nn(-c3ccc(F)cc3)c2n1 yielded % Activity at 1 μM (AUC**) of 273.3871

CC(C)c1nn(-c2ccnc(N3CCOCC3)c2)c2nc(C(=O)O)cc(-c3ccc(N4CCOCC4)cc3)c12 has a reported % Activity at 1 μM (AUC**) of 254

The measured % Activity at 1 μM (AUC**) associated with COCCN1CCN(c2ccc(-c3cc(C(=O)O)nc4c3c(C3CCC3)nn4C3CCCCC3)cn2)CC1 reads 170

The recorded % Activity at 1 μM (AUC**) for O=C(O)c1cc(N2CCC(N3CCN(C4CC4)CC3)CC2)c2c(C3CCC3)nn(-c3ccc(F)cc3)c2n1 is 282.5409

Briefly, % Activity at 1 μM (AUC**) measured for CC(C)c1nn(-c2ccc(F)cc2)c2nc(C(=O)O)cc(N3CCC(C(C)N4CCCC4)CC3)c12 (stereo not drawn) : 235

Looking up CC1CCN(CCC2CCN(c3cc(C(=O)O)nc4c3c(C3CCC3)nn4-c3ccccc3)CC2)CC1 , I found its % Activity at 1 μM (AUC**) recorded as 263.3333

Noted for COC1CCN(C2CCN(c3cc(C(=O)O)nc4c3c(C3CCC3)nn4-c3ccc(F)cc3)CC2)CC1 : its % Activity at 1 μM (AUC**) reads 188.3291

====

Biological target: ΔF508-CFTR (Homo sapiens, UniProt P13569, DEL508-508)
Construct: host or cells: CFBE41o-, doxycycline-inducible
Sequence (P13569 with tags, fused parts or gaps DEL508-508): as above
Assay: CFTR cell surface levels using HRP-tagged ΔF508-CFTR expressing CFBE cells, in the presence of a co-corrector
Format: cell-based
Conditions: HRP-tagged ΔF508-CFTR expressing CFBE cells, in the presence of 3 μM co-corrector; read-out: EC50
Observable: EC50 (nM)
The response must be a number in nM with no trailing unit.

// CC1(COc2cc(C(=O)O)nc3c2c(C2CCC2)nn3-c2ccccc2)CC(F)(F)C1 : EC50 value = 386

# EC50 of CN(C)CC(CN(C)C)Oc1cc(C(=O)O)nc2c1c(C1CCC1)nn2-c1ccccc1 = 6660

Input O=C(O)c1cc(OCC2CCOCC2)c2c(C3CCC3)nn(-c3ccc(F)cc3)c2n1 . Output EC50: 455

Quick note, EC50 for O=C(O)c1cc(N2CCC3(CC2)CC(F)(F)CO3)c2c(C3CCC3)nn(-c3ccccc3)c2n1 landed at 656

Notebook: O=C(O)c1cc(N2CCC(CN3CCC4(CC3)COC4)CC2)c2c(C3CCC3)nn(-c3ccccc3)c2n1 , EC50 read as 250

# EC50 (molecule: CCOCCN1CCN(c2cc(C(=O)O)nc3c2c(C2CCC2)nn3-c2ccccc2)CC1 ) is 407

response.value for CC(C)Oc1nn(C2CCCCC2)c2nc(C(=O)O)cc(-c3ccc(C(=O)N4CCN(C)CC4)cc3)c12 (field: EC50) = 2410

Reported EC50 for CN1CCC[C@@H](Oc2cc(C(=O)O)nc3c2c(C2CCC2)nn3-c2ccccc2)C1 was 2130

For record CC(C)c1nn(C2CCCCC2)c2nc(C(=O)O)cc(-c3ccn(C)c3)c12 the listed EC50 is 1520

CC(C)c1nn(-c2ccc(F)cc2)c2nc(C(=O)O)cc(N3CCN(CCOCCO)CC3)c12 has a reported EC50 of 1670

EC50 reported for this molecule O=C(O)c1cc(-c2ccc(N3CCOCC3)cc2)c2c(C3CCC3)nn(-c3cccc(C(F)(F)F)c3)c2n1 : 323

// sample O=C(O)c1cc(N2CC3(CCOCC3)C2)c2c(C3CCC3)nn(-c3ccccc3)c2n1 , its EC50 was 349

EC50 for O=C(O)c1cc(CN2CCOCC2)c2c(C3CCC3)nn(-c3ccc(F)cc3)c2n1 is 2440

Item: CC(C)c1nn(C2CCCC2)c2nc(C(=O)O)cc(-c3ccc(N4CCOCC4)cc3)c12 | EC50: 993

So, CC(C)c1nn(C2CCCCC2)c2nc(C(=O)O)cc(-c3ccc4c(c3)CNC4=O)c12 ? Its EC50 was 1640

Lab book: EC50 of Cc1cccc(-n2nc(C(C)C)c3c(N4CC5(CCCCO5)C4)cc(C(=O)O)nc32)c1 noted as 902

====

Target: ΔF508-CFTR (Homo sapiens, UniProt P13569, DEL508-508)
Construct: host or cells: CFBE41o-, doxycycline-inducible
Assay: CFTR cell surface levels using HRP-tagged ΔF508-CFTR expressing CFBE cells, in the presence of a co-corrector
Type: cell-based
Settings: HRP-tagged ΔF508-CFTR expressing CFBE cells, in the presence of 3 μM co-corrector
Observable: % Activation (%)
Form entry: value (%) — number only.

Recorded result, CC(C)c1nn(-c2ccc(F)cc2)c2nc(C(=O)O)cc(N3CCC4(CC3)OCCO4)c12 [compound 782] , % Activation: 345.2

response.value for COCCC1(COc2cc(C(=O)O)nc3c2c(C2CCC2)nn3-c2ccccc2)CC1 [compound 485] (field: % Activation) = 242.05

Query CN1CCC(C2CCN(c3cc(C(=O)O)nc4c3c(C3CCC3)nn4-c3ccccc3)CC2)CC1 [compound 454] yields % Activation of 470.3

For record O=C(O)c1cc(N2CCC(N3CCOCC3)CC2)c2c(C3CCC3)nn(-c3ccc(OCCF)nc3)c2n1 [compound 917] the listed % Activation is 306.95

Field % Activation (entry CC(C)c1nn(-c2cccc(N(C)C)c2)c2nc(C(=O)O)cc(OCC3CCOCC3)c12 [compound 602] ) reads 393.4

Kindly note the recorded % Activation for O=C(O)c1cc(N2CCC(N3CCC(F)C3)CC2)c2c(C3CCC3)nn(-c3ccc(F)cc3)c2n1 (stereo not drawn) [compound 846] , which is 495.1

Lab note: measured % Activation of CN(c1ncc(-c2cc(C(=O)O)nc3c2c(C2CCC2)nn3-c2cccc(N3CCCC3)c2)cn1)C1CCOCC1 [compound 277] was 608.57

Lookup result for COC1CN(c2cc(C(=O)O)nc3c2c(C2CCC2)nn3-c2ccccc2)C1 [compound 542] ; measured % Activation: 290.6

get_value(item= CO[C@H]1CC[C@@H](Oc2cc(C(=O)O)nc3c2c(C2CCC2)nn3-c2ccccc2)CC1 [compound 428] , readout=% Activation) returns 296

Note to self: % Activation recorded for CN1CCN(C2CCN(c3cc(C(=O)O)nc4c3c(C3CCC3)nn4-c3ccccc3)CC2)CC1 [compound 757] was 489.6

Summary for this compound, CC(C)N1CCC(Oc2cc(C(=O)O)nc3c2c(C2CCC2)nn3-c2ccccc2)CC1 [compound 647] : % Activation is 301.3

% Activation measured on O=C(O)c1cc(O[C@H]2C[C@@H](N3CCC3)C2)c2c(C3CCC3)nn(-c3ccccc3)c2n1 [compound 598] = 274.4

Form field % Activation, entry CN(C)c1ccc(-n2nc(C3CCC3)c3c(-c4ccc(N5CCOCC5)cc4)cc(C(=O)O)nc32)cc1 [compound 357] : 274.8

So, CC(C)c1nn(-c2ccc(F)cc2)c2nc(C(=O)O)cc(N3CCN(CCCN(C)C)CC3)c12 [compound 760] ? Its % Activation was 131.6

Lookup result for CC(C)c1nn(-c2cccc(N3CCOCC3)c2)c2nc(C(=O)O)cc(-c3ccc(N(C)C4CCOCC4)cc3)c12 [compound 208] ; measured % Activation: 673.2
